MEASUREMENT_PROTOCOL: Solubility of linerixibat drug substance over pH 1.2-6.8 at 37±1° C. (Experiment 8a)
Type: physicochemical
SETUP_CONDITIONS: Britton Robinson buffer, 37 °C, pH 5, aqueous buffer, thermodynamic from solid, nominal pH 5.0, BR buffer, 4-hr timepoint
Protocol: The solubility of linerixibat drug substance, in respect of Form I and Form III, was determined over the pH range of 1.2-6.8 at 37±1° C. Eight pH values within this range, including buffers at pH 1.2, 4.5 and 6.8 were evaluated. The therapeutic dose for linerixibat is 40 mg. • SGF=simulated gastric fluid • BR=Britton Robinson
QUANTITY_NAME: solubility at 4 h (µg/mL)
Answers are plain numbers, in µg/mL.

# input Determine its reported solubility at 4 h: CCCC[C@]1(CC)CS(=O)(=O)c2cc(CNC(CC(=O)O)CC(=O)O)c(OC)cc2[C@@H](c2ccccc2)N1 [Form I]
# output 491

----------
MEASUREMENT_PROTOCOL: Solubility of linerixibat drug substance over pH 1.2-6.8 at 37±1° C. (Experiment 8a)
Type: physicochemical
SETUP_CONDITIONS: phosphate buffer, 37 °C, pH 6.8, aqueous buffer, thermodynamic from solid, nominal pH 6.8, Phosphate buffer, 24-hr timepoint
QUANTITY_NAME: solubility at 24 h

# input Determine its reported solubility at 24 h: CCCC[C@]1(CC)CS(=O)(=O)c2cc(CNC(CC(=O)O)CC(=O)O)c(OC)cc2[C@@H](c2ccccc2)N1 [Form I]
# output > 1000 µg/mL

----------
MEASUREMENT_PROTOCOL: Solubility of linerixibat drug substance over pH 1.2-6.8 at 37±1° C. (Experiment 8a)
Format: physicochemical
SETUP_CONDITIONS: Britton Robinson buffer, 37 °C, pH 5, aqueous buffer, thermodynamic from solid, nominal pH 5.0, BR buffer, 24-hr timepoint
Description: The solubility of linerixibat drug substance, in respect of Form I and Form III, was determined over the pH range of 1.2-6.8 at 37±1° C. Eight pH values within this range, including buffers at pH 1.2, 4.5 and 6.8 were evaluated. The therapeutic dose for linerixibat is 40 mg. • SGF=simulated gastric fluid • BR=Britton Robinson
QUANTITY_NAME: solubility at 24 h (µg/mL)
One number for each entry, in µg/mL.

# input Determine its reported solubility at 24 h: CCCC[C@]1(CC)CS(=O)(=O)c2cc(CNC(CC(=O)O)CC(=O)O)c(OC)cc2[C@@H](c2ccccc2)N1 [Form I]
# output 650

----------
MEASUREMENT_PROTOCOL: Solubility of drug substance samples in biorelevant media and sodium acetate buffer (Experiment 8b)
Assay type: physicochemical
SETUP_CONDITIONS: Simulated Gastric Fluid (SGF), pH 2, simulated gastric fluid, thermodynamic from solid, SGF pH 2.0, 24 Hours
QUANTITY_NAME: solubility at 24 h (µg/mL)
One number for each entry, in µg/mL.

# input Determine its reported solubility at 24 h: CCCC[C@]1(CC)CS(=O)(=O)c2cc(CNC(CC(=O)O)CC(=O)O)c(OC)cc2[C@@H](c2ccccc2)N1 [Form I]
# output 1620

----------
MEASUREMENT_PROTOCOL: Solubility of linerixibat drug substance over pH 1.2-6.8 at 37±1° C. (Experiment 8a)
Assay type: physicochemical
SETUP_CONDITIONS: Britton Robinson buffer, 37 °C, pH 3.5, aqueous buffer, thermodynamic from solid, nominal pH 3.5, BR buffer, 24-hr timepoint
Procedure: The solubility of linerixibat drug substance, in respect of Form I and Form III, was determined over the pH range of 1.2-6.8 at 37±1° C. Eight pH values within this range, including buffers at pH 1.2, 4.5 and 6.8 were evaluated. The therapeutic dose for linerixibat is 40 mg. • SGF=simulated gastric fluid • BR=Britton Robinson
QUANTITY_NAME: solubility at 24 h (µg/mL)
One number for each entry, in µg/mL.

# input Determine its reported solubility at 24 h: CCCC[C@]1(CC)CS(=O)(=O)c2cc(CNC(CC(=O)O)CC(=O)O)c(OC)cc2[C@@H](c2ccccc2)N1 [Form I]
# output 128
